System Under Test: T1, Full length human TfR on CHO cells (human, UniProt P02786 1-760)
T1 construct: also called CHO + huTfR; CHO + hTfR
T1 sequence (P02786 whole entry): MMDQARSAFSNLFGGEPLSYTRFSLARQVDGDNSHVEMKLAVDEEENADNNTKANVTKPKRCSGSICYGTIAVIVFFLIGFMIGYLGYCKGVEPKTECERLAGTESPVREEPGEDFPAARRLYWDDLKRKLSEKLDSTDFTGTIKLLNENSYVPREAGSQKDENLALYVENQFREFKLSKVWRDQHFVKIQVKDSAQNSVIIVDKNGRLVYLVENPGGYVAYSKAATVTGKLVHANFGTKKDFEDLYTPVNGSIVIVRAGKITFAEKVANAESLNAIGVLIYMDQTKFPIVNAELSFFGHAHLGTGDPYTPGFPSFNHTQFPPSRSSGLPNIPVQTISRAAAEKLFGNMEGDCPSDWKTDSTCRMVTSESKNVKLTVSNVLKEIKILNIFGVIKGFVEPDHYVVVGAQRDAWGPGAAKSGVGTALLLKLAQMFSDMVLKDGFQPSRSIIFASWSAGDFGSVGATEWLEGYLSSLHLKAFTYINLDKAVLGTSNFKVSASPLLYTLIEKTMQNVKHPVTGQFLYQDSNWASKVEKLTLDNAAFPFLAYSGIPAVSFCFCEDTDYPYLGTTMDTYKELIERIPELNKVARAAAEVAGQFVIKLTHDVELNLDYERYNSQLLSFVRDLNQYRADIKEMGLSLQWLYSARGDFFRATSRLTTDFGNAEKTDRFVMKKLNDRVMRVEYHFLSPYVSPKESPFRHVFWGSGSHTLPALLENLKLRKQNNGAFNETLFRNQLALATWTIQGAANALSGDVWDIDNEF
Assay Method Text: FACS MFI, supernatant
Here the recorded fold over parental (CHO WT) is given for each entry.
Give the number; fold is assumed, so skip it.

Before answering, review these 3 worked examples.
# Binder, Assay Endpoint, Result Value
records = [
    ("TfR7 (mouse hybridoma antibody) (antibody, V domains shown, mouse IgG in hybridoma supernatant) VH: DVQLQESGPGLVKPSQSLSLTCTVTGYSITSDYAWNWLRQFPGNKLEWMGYISYSGYSRHNPSLKSRISITRDTSKNQFFLQLNSVTSEDTATYYCARGDWDFDYWGQGTTLTVSS VL: DIVMTQSQKFMSTSVGDRVSVTCKASQNVLTNVAWYQQKPGHSPKALIYSSSSRNSGVPDRFTGSGSGTDFTLTISNVQSEDLAEYFCQQYNTYPYTFGGGTKLEIK", "fold over parental (CHO WT)", 87),
    ("TfR28 (mouse hybridoma antibody) (antibody, V domains shown, mouse IgG in hybridoma supernatant) VH: DVQLQESGPGLVKPSQSLSLTCTVTGYSITSDYAWNWIRQFPGNKLEWMGYISYSGSTSYNPSLRSRISITRDTSKNQFFLQLNSVTTEDTATYYCAIRGYRYEEDYWGQGTTLTVSS VL: QIVLTQSPAIMSASPREKVTMTCSASSSISSMHWYQQKPGTSPKRWIYDTSKLASGVPARFSGSGSGTSYSLTISSMEAEDAATYYCHQRSSYPWTFGGGTKLEIK", "fold over parental (CHO WT)", 157),
    ("TfR25 (mouse hybridoma antibody) (antibody, V domains shown, mouse IgG in hybridoma supernatant) VH: QVQLQQSGPELVKPGTSVKMSCKASGYTFTNYYIHWMKQRPGQGLEWIGWIYPGDGNTHYNERFKGKTTLTADKSSSTVYMFLTSLTSEDSAIYFCAKDKDMPGMDYWGQGTSVTVSS VL: DMVMTQSPSSLTVTAGEKVTMSCKSSQSLFNSENQKNYLTWYQQKPGQPPKLLISWASTRESGVPDRFTGSGSGTDFTLTINSVQAEDLAVYYCQNDYSYPLTFGAGTKLELK", "fold over parental (CHO WT)", 135),
]

// switching to the query binder
Ask: Which fold over parental (CHO WT) is listed for TfR4 (mouse hybridoma antibody) (antibody, V domains shown, mouse IgG in hybridoma supernatant) VH: QVQLQQSGAELVRPGTSVKVSCKASGYAFTNYLIEWVKQRPGQGLEWIGVINPGSGGTTYNEKFKGKATLTADKSSSTAYMQLSGLTSDDSAVYFCARRSPYFDYWGQGTTLTVSS VL: SIVMTQTPKFLLVSAGDRVTITCKASQSVSNDVAWYQQKPGQSPKLLIYYASNRYTGVPDRFTGSGYGTDFTFTISTVQAEDLAVYFCHQDYISPTFGGGTKLEIK ?
Reply: 61
